Measured On: T1, human IL-33 (R&D Systems, #3625-IL-010/CF) (human) (UniProt O95760)
T1 sequence (looked up): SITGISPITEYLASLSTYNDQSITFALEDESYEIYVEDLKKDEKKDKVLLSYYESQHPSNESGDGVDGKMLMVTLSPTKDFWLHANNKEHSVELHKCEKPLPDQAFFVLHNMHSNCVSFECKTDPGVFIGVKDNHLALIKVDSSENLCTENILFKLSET
Hi there, I'd appreciate the recorded Ph-p38 MFI at 2 nM Ab (500 pM human IL-33, primary basophils) for every entry that follows.
One number for each entry, in MFI.

Please review the following examples before continuing.
H4H9664P (antibody, from another filing, IgG4, V domains shown) VH: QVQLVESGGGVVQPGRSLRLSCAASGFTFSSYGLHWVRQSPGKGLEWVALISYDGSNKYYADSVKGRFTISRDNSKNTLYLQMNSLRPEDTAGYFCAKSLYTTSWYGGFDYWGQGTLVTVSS VL: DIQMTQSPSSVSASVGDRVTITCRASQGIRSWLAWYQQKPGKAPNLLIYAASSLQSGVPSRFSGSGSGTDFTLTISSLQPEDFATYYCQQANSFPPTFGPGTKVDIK | 40
H4H9660P (antibody, from another filing, IgG4, V domains shown) VH: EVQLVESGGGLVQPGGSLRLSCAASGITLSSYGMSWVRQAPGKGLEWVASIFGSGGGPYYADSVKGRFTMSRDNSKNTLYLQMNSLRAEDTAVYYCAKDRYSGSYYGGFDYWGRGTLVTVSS VL: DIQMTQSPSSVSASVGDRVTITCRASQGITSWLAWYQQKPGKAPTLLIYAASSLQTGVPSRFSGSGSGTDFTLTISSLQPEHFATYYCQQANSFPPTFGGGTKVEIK | 29

Ask | Let me know recorded Ph-p38 MFI at 2 nM Ab (500 pM human IL-33, primary basophils) for H4H9671P (antibody, from another filing, IgG4, V domains shown) VH: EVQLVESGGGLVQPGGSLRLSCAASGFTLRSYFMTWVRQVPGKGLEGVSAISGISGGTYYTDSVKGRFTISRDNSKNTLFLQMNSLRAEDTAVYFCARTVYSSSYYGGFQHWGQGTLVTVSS VL: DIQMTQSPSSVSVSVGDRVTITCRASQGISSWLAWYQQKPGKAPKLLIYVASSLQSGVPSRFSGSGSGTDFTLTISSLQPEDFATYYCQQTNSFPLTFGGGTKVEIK , thanks.
Reply | 83
